- SYSTEM: Acetylcholinesterase (Electrophorus electricus)
- Sequence (O42275 whole entry): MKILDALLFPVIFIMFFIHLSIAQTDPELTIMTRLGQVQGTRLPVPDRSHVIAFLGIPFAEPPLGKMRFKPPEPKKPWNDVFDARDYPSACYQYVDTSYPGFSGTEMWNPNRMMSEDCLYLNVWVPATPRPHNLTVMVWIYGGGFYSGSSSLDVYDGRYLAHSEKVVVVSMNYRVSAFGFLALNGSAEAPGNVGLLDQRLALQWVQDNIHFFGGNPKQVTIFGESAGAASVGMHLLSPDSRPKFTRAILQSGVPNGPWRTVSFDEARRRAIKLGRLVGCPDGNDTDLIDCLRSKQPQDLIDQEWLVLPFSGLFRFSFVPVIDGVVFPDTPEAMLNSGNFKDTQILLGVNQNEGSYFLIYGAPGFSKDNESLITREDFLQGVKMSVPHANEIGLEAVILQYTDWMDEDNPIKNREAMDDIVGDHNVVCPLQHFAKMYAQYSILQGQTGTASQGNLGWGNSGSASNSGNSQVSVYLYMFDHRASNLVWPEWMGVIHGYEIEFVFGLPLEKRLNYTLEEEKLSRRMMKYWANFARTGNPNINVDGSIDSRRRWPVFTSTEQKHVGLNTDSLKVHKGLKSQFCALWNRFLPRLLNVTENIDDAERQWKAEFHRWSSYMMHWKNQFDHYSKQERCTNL
pKi: −log10 of the molar value.
Label Yes when pKi is at or above 5; anything below gets No.

Threshold query (pKi >= 5) on `Fc1cnc(F)c(F)c1-c1c2nc(c(-c3c(F)cnc(F)c3F)c3ccc([nH]3)c(-c3c(F)cnc(F)c3F)c3ccc([nH]3)c(-c3c(F)cnc(F)c3F)c3nc1C=C3)C=C2` Yes

Threshold query (pKi >= 5) on `Oc1ccccc1-c1c2nc(c(-c3ccccc3O)c3ccc([nH]3)c(-c3ccccc3O)c3ccc([nH]3)c(-c3ccccc3O)c3nc1C=C3)C=C2` No

Threshold query (pKi >= 5) on `Fc1cccc(F)c1-c1c2nc(c(-c3c(F)cccc3F)c3ccc([nH]3)c(-c3c(F)cccc3F)c3ccc([nH]3)c(-c3c(F)cccc3F)c3nc1C=C3)C=C2` Yes

Threshold query (pKi >= 5) on `Fc1ccc(-c2c3nc(c(-c4ccc(F)cc4F)c4ccc([nH]4)c(-c4ccc(F)cc4F)c4ccc([nH]4)c(-c4ccc(F)cc4F)c4nc2C=C4)C=C3)c(F)c1` Yes

Threshold query (pKi >= 5) on `Fc1ccccc1-c1c2nc(c(-c3ccccc3F)c3ccc([nH]3)c(-c3ccccc3F)c3ccc([nH]3)c(-c3ccccc3F)c3nc1C=C3)C=C2` No

Threshold query (pKi >= 5) on `Oc1ccc(O)c(-c2c3nc(c(-c4cc(O)ccc4O)c4ccc([nH]4)c(-c4cc(O)ccc4O)c4ccc([nH]4)c(-c4cc(O)ccc4O)c4nc2C=C4)C=C3)c1` Yes

Threshold query (pKi >= 5) on `C[n+]1ccc(-c2c3nc(c(-c4cc[n+](C)cc4F)c4ccc([nH]4)c(-c4cc[n+](C)cc4F)c4ccc([nH]4)c(-c4cc[n+](C)cc4F)c4nc2C=C4)C=C3)c(F)c1.Cc1ccc(S(=O)(=O)[O-])cc1.Cc1ccc(S(=O)(=O)[O-])cc1.Cc1ccc(S(=O)(=O)[O-])cc1.Cc1ccc(S(=O)(=O)[O-])cc1` Yes

Threshold query (pKi >= 5) on `Oc1cccc(-c2c3nc(c(-c4cccc(O)c4)c4ccc([nH]4)c(-c4cccc(O)c4)c4ccc([nH]4)c(-c4cccc(O)c4)c4nc2C=C4)C=C3)c1` No

Threshold query (pKi >= 5) on `Fc1cnccc1-c1c2nc(c(-c3ccncc3F)c3ccc([nH]3)c(-c3ccncc3F)c3ccc([nH]3)c(-c3ccncc3F)c3nc1C=C3)C=C2` Yes
